target or system: IDO1 (Homo sapiens)
test: IDO1 Cellular Assay in HeLa Cells Stimulated with IFNγ
Assay type: cell-based
measurement conditions: read-out: HeLa Cell Potency, IC50
# IC50 values compiled below
Numeric only. Scale: nM

Example entries and their recorded answers appear below.
{"columns": ["compound", "IC50, nM"],
 "data": [
  ["COc1ccc(N2CCN(C(=O)Cn3nc(C(=O)N4C[C@@H](C)O[C@@H](C)C4)c4c3CCC4)CC2)c(C)c1C", 83],
  ["Cc1cccc(N2CCN(C(=O)Cn3nc(C(=O)N4CC[C@H](C(C)(C)O)C4)c4c3C[C@H]3C[C@@H]43)CC2)c1C", 0.82],
  ["Cc1c(Cl)cccc1N1CCN(C(=O)Cn2nc(C(=O)N3CCC(OCCO)CC3)c3c2CCC(F)C3)CC1 (single isomer, unassigned) [Example 373]", 3.78],
  ["Cc1cccc(N2CCN(C(=O)Cn3nc(C(=O)N4CCC(CCO)CC4)c4c3CCC4)CC2)c1C", 1.65],
  ["Cc1cccc(N2CCN(C(=O)Cn3nc(C(=O)N4CC[C@@H](O)[C@@H](F)C4)c4c3CCC4)CC2)c1C", 12.4],
  ["Cc1c(F)ccc(N2CCN(C(=O)Cn3nc(C(=O)N4CC[C@H](O)[C@@H](F)C4)c4c3CCCC4)CC2)c1C", 1.17],
  ["Cc1cccc(N2CCN(C(=O)Cn3nc(C(=O)N4CCCCC4C(C)(C)O)c4c3C[C@H]3C[C@@H]43)CC2)c1C (stereo partly drawn)", 3.66],
  ["CC(=O)NC1CCN(C(=O)c2nn(CC(=O)N3CCN(c4cccc(C)c4C)CC34CC4)c3c2[C@@H]2C[C@@H]2C3)CC1", 0.73],
  ["Cc1cccc(N2CCN(C(=O)Cn3nc(C(=O)N4CCC5NC(=O)OCC5C4)c4c3C[C@H]3C[C@@H]43)CC2)c1C (stereo partly drawn) [Example 240]", 13.3],
  ["Cc1cccc(N2CCN(C(=O)Cn3nc(C(=O)N4CCC(c5cn[nH]c5)CC4)c4c3CCC4)CC2)c1C", 1.29]
]}

// IC50 lookup, key: Cc1cccc(N2CCN(C(=O)Cn3nc(C(=O)N4CC[C@@H](O)[C@@H](F)C4)c4c3CCCC4)CC2)c1C
5.45

// IC50 lookup, key: Cc1cccc(N2CCN(C(=O)Cn3nc(C(=O)N4CCC(C)(CO)CC4)c4c3C[C@H]3C[C@@H]43)CC2)c1C
0.7

// IC50 lookup, key: Cc1cccc(N2CCN(C(=O)Cn3nc(C(=O)N4CC[C@H](O)[C@@H](F)C4)c4c3CC(F)(F)C4)CC2)c1C
413

// IC50 lookup, key: Cc1cccc(N2CCN(C(=O)Cn3nc(C(=O)N4CC[C@H](CO)[C@H](F)C4)c4c3CCC4)CC2)c1C
10.3

// IC50 lookup, key: Cc1c(Cl)cccc1N1CCN(C(=O)Cn2nc(C(=O)N3CCC(O)(CF)CC3)c3c2CCC(F)(F)C3)CC1
4.49

// IC50 lookup, key: Cc1cccc(N2CCN(C(=O)Cn3nc(C(=O)N4CCC(O)CC4)c4c3CCCC4)CC2)c1Cl
1.83

###

target or system: IDO1 (Homo sapiens, UniProt P14902)
Sequence (P14902 whole entry): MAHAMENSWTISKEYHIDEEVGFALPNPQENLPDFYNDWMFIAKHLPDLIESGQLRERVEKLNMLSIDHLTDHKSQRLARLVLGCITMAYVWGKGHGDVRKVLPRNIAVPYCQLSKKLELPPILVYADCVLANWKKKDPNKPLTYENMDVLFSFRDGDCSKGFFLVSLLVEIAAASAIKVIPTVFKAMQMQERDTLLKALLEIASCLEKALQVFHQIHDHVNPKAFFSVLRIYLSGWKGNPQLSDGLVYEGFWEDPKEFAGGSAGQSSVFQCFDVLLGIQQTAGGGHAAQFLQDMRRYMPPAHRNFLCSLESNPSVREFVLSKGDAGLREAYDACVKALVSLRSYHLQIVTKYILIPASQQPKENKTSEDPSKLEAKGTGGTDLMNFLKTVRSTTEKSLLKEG
test: IDO1 Cellular Assay in HeLa Cells Stimulated with IFNγ
Format: cell-based
measurement conditions: read-out: HeLa Cell Potency, IC50
observable: log10(IC50) (log10 of the value in nM)
Scale type: logarithmic (base 10). Underlying IC50 unit: nM.

Example entries and their recorded answers appear below.
{"columns": ["molecule", "val"],
 "data": [
  ["Cc1cccc(N2CCN(C(=O)Cn3nc(C(=O)N4CCN(S(=O)(=O)N(C)C)CC4)c4c3CCC4)CC2)c1C", 0.47],
  ["Cc1c(Cl)cccc1N1CCN(C(=O)Cn2nc(C(=O)N3CCC(OCCO)CC3)c3c2CCC(F)C3)CC1 (single isomer, unassigned) [Example 368]", 0.45],
  ["Cc1cccc(N2CCN(C(=O)Cn3nc(C(=O)N4CCN(C(=O)CO)CC4)c4c3C[C@H]3C[C@@H]43)C(C(F)F)C2)c1C (stereo partly drawn) [Example 388]", 1.97],
  ["Cc1cccc(N2CCN(C(=O)Cn3nc(C(=O)N4CC[C@H](O)[C@H](F)C4)c4c3CC(C(F)F)C4)CC2)c1C (single isomer, unassigned) [Example 11]", 0.88],
  ["Cc1cccc(N2CCN(C(=O)Cn3nc(C(=O)N4CC[C@@H](O)[C@@H](F)C4)c4c3C[C@H]3C[C@@H]43)CC2)c1C", 0.23]
]}

Could you now look at the following molecule, please?
// log10(IC50) lookup, key: Cc1cccc(N2CCN(C(=O)Cn3nc(C(=O)N4CCC(O)(C(N)=O)CC4)c4c3CCC4)CC2)c1C
1.48

###

target or system: IDO1 (Homo sapiens)
test: IDO1 Cellular Assay in HeLa Cells Stimulated with IFNγ
Type: cell-based
measurement conditions: read-out: HeLa Cell Potency, IC50
observable: log10 IC50 (log10 of the value in µM)
Scale type: logarithmic (base 10). Underlying IC50 unit: µM.

Example entries and their recorded answers appear below.
{"columns": ["compound", "log10 IC50"],
 "data": [
  ["Cc1cccc(N2CCN(C(=O)Cn3nc(C(=O)N4CCC(O)C(F)C4)c4c3CCC4)C3(CC3)C2)c1C (single isomer, unassigned) [Example 329]", -2.14],
  ["Cc1cccc(N2CCN(C(=O)Cn3nc(C(=O)N4CCC(O)CC4)c4c3C[C@H]3C[C@@H]43)C(C(F)F)C2)c1C (some centres unmarked) [Example 385]", -1.46]
]}

// log10 IC50 lookup, key: Cc1cccc(N2CCN(C(=O)Cn3nc(C(=O)N4C[C@@H](C)O[C@@H](C)C4)c4c3CCC4)CC2)c1
-1.08

// log10 IC50 lookup, key: C[C@@H]1CN(C(=O)c2nn(CC(=O)N3CCN(C4CCCc5ccccc54)CC3)c3c2CCC3)C[C@H](C)O1 (some centres unmarked)
-1.07

// log10 IC50 lookup, key: Cc1c(C(F)F)cccc1N1CCN(C(=O)Cn2nc(C(=O)N3CCN(C(=O)CO)CC3)c3c2C[C@H]2C[C@@H]32)CC1
-2.19

// log10 IC50 lookup, key: CCc1cccc(N2CCN(C(=O)Cn3nc(C(=O)N4C[C@@H](C)O[C@@H](C)C4)c4c3CCC4)CC2)c1
-0.68

// log10 IC50 lookup, key: Cc1cccc(N2CCN(C(=O)Cn3nc(C(=O)N4CCC5(CC4)CNC(=O)CO5)c4c3C[C@H]3C[C@@H]43)CC2)c1C
-2.32

// log10 IC50 lookup, key: Cc1cccc(N2CCN(C(=O)Cn3nc(C(=O)N4CCC(C(N)=O)CC4)c4c3CCC4)CC2)c1C
-1.71

###

target or system: IDO1 (Homo sapiens, UniProt P14902)
test: IDO1 Cellular Assay in HeLa Cells Stimulated with IFNγ
Format: cell-based
measurement conditions: read-out: HeLa Cell Potency, IC50
observable: pIC50
Scale: pIC50 equals -log10([C]), with [C] in mol/L.

{"columns": ["molecule", "target or system", "val"],
 "data": [
  ["Cc1cccc(N2CCN(C(=O)Cn3nc(C(=O)N4CCC(O)(c5ccccc5)CC4)c4c3CCC4)CC2)c1C", "IDO1 (Homo sapiens, UniProt P14902)", 7.54]
]}

// pIC50 lookup, key: Cc1cccc(N2CCN(C(=O)Cn3nc(C(=O)N4C[C@@H](C)O[C@@H](C)C4)c4c3CCC(C(F)(F)F)C4)CC2)c1C (some centres unmarked)
7.52

// pIC50 lookup, key: Cc1cccc(N2CCN(C(=O)Cn3nc(C(=O)N4CCC(O)CC4)c4c3CCC4)CC2)c1C
8.37

// pIC50 lookup, key: Cc1cccc(N2CCN(C(=O)Cn3nc(C(=O)N4CCN(C(=O)CO)CC4)c4c3CC(F)(F)CC4)CC2)c1C
7.56

###

target or system: UniProt:P14902
test: IDO1 Cellular Assay in HeLa Cells Stimulated with IFNγ
Format: cell-based
measurement conditions: read-out: HeLa Cell Potency, IC50
Output: class label from IC50. Mapping: lower level (below 4 nM), middle level (4 nM to below 30 nM), upper level (30 nM or more)

A selection of reference data follows.
{"columns": ["compound", "classification"],
 "data": [
  ["Cc1cccc(N2CCN(C(=O)Cn3nc(C(=O)N4CCC(O)C(F)C4)c4c3CCC4)C3(CC3)C2)c1C (single isomer, unassigned) [Example 330]", "middle level"],
  ["Cc1cccc(N2CCN(C(=O)Cn3nc(C(=O)N4CC[C@@H](O)[C@H](C)C4)c4c3C[C@H]3C[C@@H]43)CC2)c1C [Example 284]", "lower level"],
  ["Cc1cccc(N2CCN(C(=O)Cn3nc(C(=O)N4CCCC4)c4c3CCC(F)C4)CC2)c1C (single isomer, unassigned) [Example 8]", "middle level"],
  ["Cc1cccc(N2CCN(C(=O)Cn3nc(C(=O)N4CC[S+]([O-])CC4)c4c3C[C@H]3C[C@@H]43)CC2)c1C [Example 266]", "middle level"],
  ["Cc1cccc(N2CCN(C(=O)Cn3nc(C(=O)N4CCC(O)(CN(C)C)CC4)c4c3CCC4)CC2)c1C [Example 113]", "upper level"],
  ["Cc1cccc(N2CCN(C(=O)Cn3nc(C(=O)N4CCC(NS(C)(=O)=O)CC4)c4c3CCC4)CC2)c1C [Example 90]", "lower level"],
  ["Cc1cccc(N2CCN(C(=O)Cn3nc(C(=O)N4CCNCC4)c4c3CCC4)CC2)c1C [Example 195]", "upper level"],
  ["O=C(Cn1nc(C(=O)N2CCC(O)CC2)c2c1CCC2)N1CCN(C2CCc3ccccc32)CC1 (stereo not shown) [Example 435]", "upper level"],
  ["Cc1cccc(N2CCN(C(=O)Cn3nc(C(=O)N4CC[C@@H](O)[C@@H](F)C4)c4c3CC(F)C4)CC2)c1C (mixture of isomers) [Example 417]", "middle level"],
  ["Cc1cccc(N2CCN(C(=O)Cn3nc(C(=O)N4CCC(O)CC4)c4c3CCCC4)CC2)c1C [Example 466]", "lower level"]
]}

Assign a category based on measured IC50 for Cc1cccc(N2CCN(C(=O)Cn3nc(C(=O)N4CCC(O)(CF)CC4)c4c3C[C@H]3C[C@@H]43)C3(CC3)C2)c1C [Example 358] and give only the class name.
lower level

Assign a category based on measured IC50 for Cc1c(Cl)cccc1N1CCN(C(=O)Cn2nc(C(=O)N3CCN(C(=O)CO)CC3)c3c2CCCC3)CC1 [Example 405] and give only the class name.
lower level

Assign a category based on measured IC50 for C[C@@H]1CN(C(=O)c2nn(CC(=O)N3CCN(c4ccc(Cl)c(F)c4)CC3)c3c2CCC3)C[C@H](C)O1 [Example 54] and give only the class name.
upper level

Entry source: patent US12264134B2
